EC50 values by entry
Molecular target: T1, human BAFFR on HEK-293T-BAFFR cells (human, UniProt Q96RJ3 1-184)
T1 construct: also called B lymphocyte stimulator factor receptor
T1 sequence: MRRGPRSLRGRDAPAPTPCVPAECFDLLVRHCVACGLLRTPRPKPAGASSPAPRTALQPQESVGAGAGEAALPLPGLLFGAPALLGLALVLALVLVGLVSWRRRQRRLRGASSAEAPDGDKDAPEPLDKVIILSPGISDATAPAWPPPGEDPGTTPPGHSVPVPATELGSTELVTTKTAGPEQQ
Assay: flow cytometry on HEK-293T-BAFFR cells, anti-human Fc-647 secondary
The reply should contain only the number, in nM.

Below, each entry is followed by its recorded EC50 result.
# binder, value type, quantitative readout
data = [
    ("NB467-46 (Fc fusion, also called nanobody NB467-46; anti-BAFFR nanobody; not shown: Human IgG1 Fc fused to the VHH) EVQVVESGGGLVQPGGSLRLSCAASGFSLTYYAIGWFRQAPGKEREGVACISGGGDQLYYTDSVKGRFTISRDNAKNTVYLHMNSLKPEDTAVYYCAADVYYSGSYNYRSCNPAESKYWGQGTQVTVSS", "EC50", 1.55),
    ("NB467-8 (Fc fusion, also called nanobody NB467-8; anti-BAFFR nanobody; not shown: Human IgG1 Fc fused to the VHH) QVQLVESGGGLVQPGGSLRLSCAASGFSLEYYAIGWFRHIPGKEREAVSCISSPGDSTWYVDSVKGRFTISRDNAKNTVYLQMNSLKPEDTAVYHCAADVYYSGSYLSRSCNPHESKYWGQGTQVTVSS", "EC50", 1.76),
    ("NB467-35 (Fc fusion, also called nanobody NB467-35; anti-BAFFR nanobody; not shown: Human IgG1 Fc fused to the VHH) QVQLVESGGGLVQPGGSLRLSCAASGFSLEYYAIGWFRQTPGKEREAISCIDSPAKSTYYADSVKGRFTISRDNSKNTVYLQMNSLKAEDTAVYYCAADVYYRGSYLYRSCNPTESKYWGQGTQVTVSS", "EC50", 3.24),
]

In: Find the recorded EC50 belonging to NB467-55 (Fc fusion, also called nanobody NB467-55; anti-BAFFR nanobody; not shown: Human IgG1 Fc fused to the VHH) EVQVVESGGDLVQPGGSLKLSCQASGFSLTYYAIGWFRQAPGKEREEISCISGDGGMTYYADPVKGRFTISRDNGRNTVYLQMNSLKPEDTAVYYCAADVYYNGNYYSRSCNPAESKYWGQGTQVTVSA and report it.
Out: 1.55
